- Target System: T1, Cyno 4-1BB-Flag, on HEK293-6e cells (Cynomolgus (Macaca fascicularis))
- T1 construct: also called Cynomolgus 4-1BB; CL#11070
- T1 chain: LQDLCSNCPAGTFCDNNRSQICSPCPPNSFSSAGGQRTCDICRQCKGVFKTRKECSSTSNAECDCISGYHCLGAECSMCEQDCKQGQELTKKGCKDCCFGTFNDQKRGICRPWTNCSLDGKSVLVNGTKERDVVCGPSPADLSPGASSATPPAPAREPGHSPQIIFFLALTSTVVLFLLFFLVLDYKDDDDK
- Assay Details: CellInsight cell binding, transfected HEK293-6e
Measured Parameter: binding result

// solved cases for binding result follow
Binder	Experimental Result
v20025 (antibody, human IgG1, kappa, L234A L235A, V domains shown, Mouse-human chimera; also called 2E8) VH: QVQLKQSGPGLVQPSQSLSITCTVSGFSLTSYGVHWVRQSPGKGLEWLGVIWSGGSTDYNAAFISRLSISKDNSKSQVFFKMNSLQADDTAIYYCARNPLTATVMDYWGQGTSVTVSS VL: DIVMTQSQKFMSTSVGDRVSVTCKASQNVGTNVAWYQQKPGQSRTVLIYSASYRHSGVPDRFTGSGSGTDFTLTISNVQSEDLAEYFCQQYNSYPLTFGTGTKLELKR	binds
v20023 (antibody, human IgG1, kappa, L234A L235A, V domains shown, Mouse-human chimera; also called 1G1; 1G1 mouse-human parental chimera) VH: EVQLVESGGGLVKPGGSRKLSCAASGFTFSEFGMHWVRQAPDKGLKWVAYISSGGSTIYYADTVKGRFTISRDNAKNTLFLQMTSLRSEDTAMYYCARDWVDYWGQGTTLTVSS VL: NIVMTQSPKSMSMSVGERVTLSCKASENVGSYVSWYQQKPEKSPKLLIYGASNRYTGVPDRFTGSGSATDFTLTISSVQAEDLADYHCGQSYSYPLTFGAGTKLELKR	binds
v20029 (antibody, human IgG1, kappa, L234A L235A, V domains shown, Mouse-human chimera; also called 3E7) VH: QVQLQESGGGLVKPGGSRKLSCAASGFTFSEFGMHWVRQAPDKGLEWVAYISSGSSTIYYADTVKGRFTISRDNAKNTLFLQMTSLRSEDTAMYYCARDWVDYWGQGTALTVSS VL: NIVMTQSPKSMSMSVGERVTLSCKASENVGSYVSWYQQKPEKSPKLLIYGASNRYTGVPDRFTGSGSATDFTLTISSVQAEDLADYHCGQSYSYPLTFGAGTKLELKR	binds
v20022 (antibody, human IgG1, kappa, L234A L235A, V domains shown, Mouse-human chimera; also called 1C8; 1C8 mouse-human parental chimera) VH: QVQLKESGPGLVAPSQSLSITCTVSGFSLTTYAISWVRQPPGKGLEWLGIIWPGGGTNYNSALKSRLSISKDNSRSQVFLKMNSLQTDDTARYYCARGAGTWYFDVWGAGTTVTVSS VL: DIQMTQSTSSLSASVGDRVTISCSASQGISNYLNWYQQKPDGTVKLLIYYTSSLHSGVPSRFSGSGSGTDYSLTISNLEPEDIATYYCQQYSKFPWTFGGGTKLEIKR	binds
v20031 (antibody, human IgG1, kappa, L234A L235A, V domains shown, Mouse-human chimera; also called 4B11; printed as 4B1) VH: QVQLQQSGPELVKPGASVKISCKASGYVFSSYWMNWVKQRPGKGLEWIGRIYPGNGDTNYNGKFKDKATLTADKFSSTAYMQLSNLTSEDSAVYFCASYYELDYWGQGTSVTVSS VL: DVVMTQTPLSLPVSLGDQASISCRSSQSLVHSNGNTYLHWYLQKPGQSPKLLIYKVSNRFFGVPDRFSGSGSGTDFTLKISRVEAEDLGVYFCSQTTYVPLTFGAGTKLELKR	no binding

# context switch: different binder, same binding result
Entry v20020 (antibody, V domains shown, Mouse-human chimera: mouse VH on human CH1-hinge-CH2-CH3 (IgG1), mouse VL on human kappa CL; also called 1B2) VH: QVQLQQPGAELVKPGASVKLSCKASGYTFTSFWINWVKQRPGQGLEWIGNIYPDSSSTNYNEKFKNKATLTVDTSSSTAYMQLSSLTSDDSAVYFCARSLTFDYWGQGTTLTVSS VL: DVVMTQTPLSLPVSLGDQASISCRSSQSIVHSNGNTYLEWYLQKPGQSPKLLIYKVSNRFSGVPDRFSARGSGTDFSLKISRVEAEDLGVYYCFQGSHVPYTFGGGTKLEIK , binding result reported as no binding
